- experiment: Oral administration to fasted beagles of compound (II) or (III) with ascorbic acid, plasma drug disposition parameters (Experimental Examples 5 and 6)
- condition context: dog, plasma, po, 3 mg/kg, Cmax mean ± SE, 3 mg/kg oral, none (control), n=2
measure name: Cmax

Incoming: Please look up its Cmax: CS(=O)(=O)O.Oc1ccc(C2CNCCc3c2cc(O)c(O)c3Cl)cc1 (stereo not shown) [compound (III), reference compound]
Outgoing: 39 ng/mL

---

- experiment: Correlation between AUC and oral dose in beagles, powder of ten-fold dilution with lactose in capsule; bioavailability from regression line (Experimental Example 2)
- Type: in vivo
- condition context: dog, plasma, oral, efficacious dose around 3 to 5 mg/kg
measure name: bioavailability

Incoming: Please look up its bioavailability: Br.Oc1ccc([C@@H]2CNC[C@H]2c2cccc(O)c2Cl)cc1O (relative stereo)
Outgoing: 4 to 5%

---

- experiment: Oral administration to fasted beagles of compound (II) or (III) with ascorbic acid, plasma drug disposition parameters (Experimental Examples 5 and 6)
- condition context: dog, plasma, po, 3 mg/kg, Cmax mean ± SE, 3 mg/kg oral + ascorbic acid 15 mg/kg, n=2
measure name: Cmax (µg/mL)
Reply with just the number (in µg/mL).

Incoming: Please look up its Cmax: CS(=O)(=O)O.Oc1ccc(C2CNCCc3c2cc(O)c(O)c3Cl)cc1 (stereo not shown) [compound (III), reference compound]
Outgoing: 0.0919

---

- experiment: Oral administration to fasted beagles with ascorbic, citric or tartaric acid, plasma drug disposition parameters (Experimental Example 3)
- Assay type: in vivo
- condition context: dog, plasma, po, 3 mg/kg, 3 mg/kg oral, no organic acid (control), n=4; read-out: AUC (0-6 hr) mean ± SE
measure name: AUC(0-t) at 6 h (ng·h/mL)
Reply with just the number (in ng·h/mL).

Incoming: Please look up its AUC(0-t) at 6 h: Oc1ccc([C@@H]2CNC[C@H]2c2cccc(O)c2Cl)cc1O (relative stereo)
Outgoing: 15.2

---

- experiment: Oral administration to fasted beagles with ascorbic, citric or tartaric acid, plasma drug disposition parameters (Experimental Example 3)
- Type: in vivo
- condition context: dog, plasma, po, 3 mg/kg, 3 mg/kg oral, no organic acid (control), n=4; read-out: Tmax mean ± SE (converted)
measure name: Tmax (min)
Reply with just the number (in min).

Incoming: Please look up its Tmax: Oc1ccc([C@@H]2CNC[C@H]2c2cccc(O)c2Cl)cc1O (relative stereo) [compound (IX)]
Outgoing: 44

---

- experiment: Oral administration to fasted beagles of compound (II) or (III) with ascorbic acid, plasma drug disposition parameters (Experimental Examples 5 and 6)
- condition context: dog, in vivo, po, 3 mg/kg, AUC (0-8 hr) mean ± SE, 3 mg/kg oral, none (control), n=2
measure name: AUC(0-t) at 8 h (ng·h/mL)
Reply with just the number (in ng·h/mL).

Incoming: Please look up its AUC(0-t) at 8 h: Br.Oc1ccc(C2CNCc3c2ccc(O)c3O)cc1O (stereo not shown)
Outgoing: 83.6

---

- experiment: Oral administration to fasted beagles of compound (II) or (III) with ascorbic acid, plasma drug disposition parameters (Experimental Examples 5 and 6)
- condition context: dog, in vivo, po, 3 mg/kg, Tmax mean ± SE, 3 mg/kg oral + ascorbic acid 15 mg/kg, n=2
measure name: Tmax (min)
Reply with just the number (in min).

Incoming: Please look up its Tmax: Br.Oc1ccc(C2CNCc3c2ccc(O)c3O)cc1O (stereo not shown)
Outgoing: 37.8

---

- experiment: Oral administration to fasted beagles of compound (II) or (III) with ascorbic acid, plasma drug disposition parameters (Experimental Examples 5 and 6)
- condition context: dog, in vivo, po, 3 mg/kg, Cmax mean ± SE, 3 mg/kg oral + ascorbic acid 15 mg/kg, n=2
measure name: Cmax

Incoming: Please look up its Cmax: Br.Oc1ccc(C2CNCc3c2ccc(O)c3O)cc1O (stereo not shown)
Outgoing: 89.6 ng/mL

---

- experiment: Drug disposition after intravenous injection to beagles, plasma concentration-time curve (Experimental Example 1)
- Assay type: in vivo
- condition context: dog, iv, 1 mg/kg, 1 mg/kg iv, phase a, read-out: t1/2a
- Method: 1 mg/kg of compound (VIII) was administered to beagles by intravenous injection and the plasma concentration-time curve thereof of prepared to find that the half-life composed of three phases (phases a, b and c).
measure name: half-life (min)
Reply with just the number (in min).

Incoming: Please look up its half-life: Br.Oc1ccc([C@@H]2CNC[C@H]2c2cccc(O)c2Cl)cc1O (relative stereo)
Outgoing: 1.3
